Below, each entry is listed alongside its reported LC retention time.
- experiment summary: RP, Phenomenex Kinetex C18, 150 × 2.1 mm, 1.7 µm, 30 °C, 0.3 mL/min, estimated dead time 1.1 min; A: water + 0.1% formic acid, pH 3; B: acetonitrile + 0.1% formic acid, pH 3; gradient (min/%B) 0/2 14/100 17/100 17.1/2 25/2
- test settings: stereoisomer not certain
Counter-ions that a name gives are not always drawn.
Provide only the numeric value, understood in min.

molecule="Nc1nc2c(ncn2C2CC(O)C(CO)O2)c(=O)[nH]1 (stereo not given)" readout_unit=min assay_result=2.84
molecule="CC(=O)NC(CCC(=O)O)C(=O)O (stereo not given) [N-ACETYLGLUTAMATE]" readout_unit=min assay_result=1.78
molecule="NC(=O)c1ccc[n+](C2OC(COP(=O)(O)OP(=O)(O)OCC3OC(n4cnc5c(N)ncnc54)C(OP(=O)(O)O)C3O)C(O)C2O)c1 (stereo not given)" readout_unit=min assay_result=1.41

Req: Field request: LC retention time | item: CC(=O)NCC(=O)O
Resp: 1.41

Req: Can you look up the measured LC retention time of CC(CCC(=O)NCCS(=O)(=O)O)C1CCC2C3CCC4CC(O)CCC4(C)C3CCC12C (stereo not given) for me?
Resp: 9.54

Req: Requested read-out: LC retention time. Entry: O=C(O)C=CC(=O)O [FUMARATE]
Resp: 1.88

Req: Looking for the measured LC retention time of Cc1ncc(COP(=O)(O)O)c(C=O)c1O [PYRIDOXAL-PHOSPHATE] , can you help?
Resp: 1.5

Req: # get_value(readout='LC retention time', item= CC(CCC(=O)O)C1CCC2C3CCC4CC(O)CCC4(C)C3CCC12C (stereo not given) [LITHOCHOLATE] )
Resp: 12.8

Req: Can you look up the measured LC retention time of CC1(O)CCOC(=O)C1 (stereo not given) for me?
Resp: 2.04

Req: Requested read-out: LC retention time. Entry: C[N+](C)(C)CC(CC(=O)[O-])OC(=O)CCCC(=O)O (stereo not given)
Resp: 2.56

Req: Dear colleague, I am looking for the recorded LC retention time of the following molecule: C=CC1=C(C)C(C=c2[nH]c(=Cc3[nH]c(C=C4NC(=O)C(C)=C4C=C)c(C)c3CCC(=O)O)c(CCC(=O)O)c2C)=NC1=O
Resp: 9.08

Req: Could you share which LC retention time value was measured for O=C(O)CCCCCCCCCCCO [OMEGA-HYDROXYDODECANOATE] ?
Resp: 8.62

Req: Would you kindly share the measured LC retention time for Nc1nc2ncc(CNc3ccc(C(=O)NC(CCC(=O)O)C(=O)O)cc3)nc2c(=O)[nH]1 (stereo not given) [FOLATE] ?
Resp: 11.3

Req: Field request: LC retention time | item: Nc1ccn(C2OC(CO)C(O)C2O)c(=O)n1 (stereo not given)
Resp: 1.39

Req: # lookup: LC retention time of O=S(=O)(O)Oc1c[nH]c2ccccc12 [INDOXYL SULFATE]
Resp: 4.62

* * *

Measured LC retention time by item
- experiment summary: HILIC, Waters ACQUITY UPLC BEH Amide, 150 × 2.1 mm, 1.7 µm, 40 °C, 0.5 mL/min, estimated dead time 0.66 min; A: 5% water + 95% acetonitrile; B: 70% water + 30% acetonitrile + 10 mM ammonium formate, pH 6.5; gradient (min/%B) 0/0 2/0 20/70 23/70 24/0 31/0
- test settings: stereoisomer not certain
Provide only the numeric value, understood in min.

molecule="CC(CCC(=O)NCCS(=O)(=O)O)C1CCC2C3CCC4CC(O)CCC4(C)C3CCC12C (configuration not stated) [LITHOCHOLYLTAURINE]" measurement_type="LC retention time" assay_result=1.01

Req: Please give the measured LC retention time for this molecule: O=C(O)CCCCCCC(=O)O [SUBERATE]
Resp: 4.7

Req: Recorded LC retention time of Nc1c([O-])cccc1C(=O)O [3-HYDROXYANTHRANILATE] , please.
Resp: 1.39

Req: Given NCCCCN [PUTRESCINE] , state its recorded LC retention time.
Resp: 0.94

Req: Given the molecule CC(CCC(=O)O)C1CCC2C3C(O)CC4CC(O)CCC4(C)C3CC(O)C12C (configuration not stated) [CHOLATE] , what is its reported LC retention time?
Resp: 2.62

Req: Need LC retention time, item Cn1cnc2c(ncn2C2OC(CO)C(O)C2O)c1=N (configuration not stated) [1-METHYLADENOSINE]
Resp: 2.82

Req: I would be grateful if you could share the reported LC retention time for CCCCC(=O)[O-] [PENTANOATE] .
Resp: 8.25

Req: Returns the measured LC retention time for the input molecule. Input: Cn1c(=O)c2[nH]cnc2n(C)c1=O [THEOPHYLLINE]
Resp: 1.36

Req: # query: LC retention time of entry COc1ccc2[nH]cc(CCNC(C)=O)c2c1 [MELATONIN]
Resp: 0.88

Req: Give the measured LC retention time of O=c1[nH]cnc2c1ncn2C1OC(CO)C(O)C1O (configuration not stated) [INOSINE] .
Resp: 5.52

* * *

This section presents molecules with their documented LC retention time values.
- experiment summary: HILIC, Waters ACQUITY UPLC BEH Amide, 150 × 2.1 mm, 1.7 µm, 40 °C, 0.5 mL/min, estimated dead time 0.66 min; A: 5% water + 95% acetonitrile; B: 70% water + 30% acetonitrile + 10 mM ammonium formate, pH 6.5; gradient (min/%B) 0/0 2/0 20/70 23/70 24/0 31/0
- test settings: stereoisomer not certain
Respond numerically; units are min and should not be typed.

Past entries and their recorded results:
molecule="CC(CCC(=O)O)C(=O)O (stereo not drawn) [2-METHYLGLUTARATE]" assay_result=5.2
molecule="NC(CO)Cc1cnc[nH]1 (stereo not drawn)" assay_result=9.82
molecule="NC(=O)NCCCC(N)C(=O)O (stereo not drawn)" assay_result=11.3
molecule="O=C([O-])CCc1ccccc1O [3-(2-HYDROXYPHENYL)PROPANOATE]" assay_result=1.02
molecule="NC(=O)CCCCC1CCSS1 (stereo not drawn) [LIPOAMIDE]" assay_result=0.88
molecule="CC12CCC(=O)C=C1CCC1C2C(O)CC2(C)C1CCC2(O)C(=O)CO (stereo not drawn)" assay_result=1

Req: Given the entry Cn1cncc1CC(NC(=O)CCN)C(=O)O (stereo not drawn) , report its measured LC retention time.
Resp: 12.5

Req: Please report the recorded LC retention time for COc1ccccc1O .
Resp: 0.89

Req: What value of measured LC retention time is listed for O=C([O-])c1cc(=O)[nH]c(=O)[nH]1 [OROTATE] ?
Resp: 3.49

Req: Need LC retention time, item CC(CCC(=O)NCC(=O)O)C1CCC2C3C(O)CC4CC(O)CCC4(C)C3CC(O)C12C (stereo not drawn) [GLYCOCHOLATE]
Resp: 6.3

* * *

- experiment summary: HILIC, Merck SeQuant ZIC-pHILIC, 150 × 2.1 mm, 5 µm, 40 °C, 0.3 mL/min, estimated dead time 1.1 min; A: acetonitrile; B: water + 2.8 mM ammonium formate, pH 9; gradient (min/%B) 0/5 1/5 10/51 13/51 13.1/5 20/5
- test settings: stereoisomer not certain
Recorded LC retention time values for a group of molecules are listed next.
Please give a number only; it is taken to be in min.

Record excerpt, results attached:
molecule="NC(CCCC(=O)O)C(=O)O (stereo not given) [AMINOADIPATE]" assay_result=8.78
molecule="CC(C)=CC(=O)SCCNC(=O)CCNC(=O)C(O)C(C)(C)COP(=O)(O)OP(=O)(O)OCC1OC(n2cnc3c(N)ncnc32)C(O)C1OP(=O)(O)O (stereo not given) [3-METHYLCROTONYL-COA]" assay_result=7.95
molecule="CC(C)=CCNc1ncnc2nc[nH]c12 [N6-(DELTA2-ISOPENTENYL)-ADENINE]" assay_result=2.04

# next molecule below
Req: Could you share which LC retention time value was measured for N[C@@H](Cc1cc(I)c(O)c(I)c1)C(=O)O [3,5-DIIODO-L-TYROSINE] ?
Resp: 7.41

* * *

- experiment summary: RP, Phenomenex Kinetex C18, 150 × 2.1 mm, 1.7 µm, 30 °C, 0.3 mL/min, estimated dead time 1.1 min; A: water + 0.1% formic acid, pH 3; B: acetonitrile + 0.1% formic acid, pH 3; gradient (min/%B) 0/2 14/100 17/100 17.1/2 25/2
- test settings: stereoisomer not certain
measurement type: LC retention time (min)
Form entry: value (min) — number only.

Req: Which LC retention time value is on record for Cc1cc2nc3c(=O)[nH]c(=O)nc-3n(CC(O)C(O)C(O)CO)c2cc1C (stereo unspecified) [RIBOFLAVIN] ?
Resp: 4.85

Req: Can you look up the measured LC retention time of Cc1c[nH]c(=O)[nH]c1=O [THYMINE] for me?
Resp: 2.54

Req: Would you mind telling me what LC retention time value was observed for CCCCCCCCCCCCCC(=O)OCC(O)CO (stereo unspecified) [GLYCEROL-MYRISTATE] ?
Resp: 13.3

Req: May I ask what LC retention time has been recorded for CCCCC(CC)COC(=O)c1ccccc1C(=O)OCC(CC)CCCC (stereo unspecified) [BIS(2-ETHYLHEXYL)PHTHALATE] ?
Resp: 9.11

Req: Which LC retention time is listed for CC(=O)OCC(=O)C1(O)CCC2C3CCC4=CC(=O)CCC4(C)C3C(O)CC21C (stereo unspecified) [CORTISOL 21-ACETATE] ?
Resp: 8.68

Req: Using the record for O=C(O)C=Cc1ccc(O)cc1 [4-COUMARATE] , report its LC retention time.
Resp: 5.65

Req: Consider the compound Nc1cc([O-])cc(C(=O)O)c1 [3-AMINO-5-HYDROXYBENZOATE] and give its measured LC retention time.
Resp: 1.75

Req: // lookup LC retention time for N[C@@H](Cc1ccc(O)c(O)c1)C(=O)O [L-DOPA]
Resp: 1.63
